For each entry below, report its MTC (Maximum Tolerable Concentration prior to causing cytotoxicity) value.
System: chicken leukocytes
Experiment: cells
Format: cell-based
Settings: Hubbard/Peterson broiler, chicken, 72 h
Answers are plain numbers, in µg/mL.

N#C[C@H]1CCCN(C(=O)Cc2cccs2)C1: 10

Here are 4 compounds. What values of MTC (Maximum Tolerable Concentration prior to causing cytotoxicity) were reported for them?
1. O=C(Cc1cccs1)N1CCCC(O)C1 (stereo not shown)
2. CCOC(=O)[C@H]1CCCN(C(=O)c2ccccc2)C1
3. CCOC(=O)C1(C)CCCN(C(=O)c2ccccc2)C1 (stereo not shown)
4. CCOC(=O)C1CCCN(C(=O)c2ccc(-c3ccccc3)cc2)C1 (stereo not shown)

Out:
[100, 10, 1, 10]

Here are 8 compounds. What values of MTC (Maximum Tolerable Concentration prior to causing cytotoxicity) were reported for them?
1. CCOC(=O)CC1CCCN(C(=O)Cc2cccs2)C1 (stereo not shown)
2. CCOC(=O)C1CCCN(C(=O)OCc2ccccc2)C1 (stereo not shown)
3. CCOC(=O)C1CCC(C)N(C(=O)Cc2cccs2)C1 (stereo not shown)
4. COC(=O)[C@H]1CCCN(C(=O)c2ccccc2)C1
5. CCOC(=O)C1CCCN(C(=O)c2ccsc2)C1 (stereo not shown)
6. CCOC(=O)[C@H]1CCCN(CCCc2cccs2)C1
7. CCOC(=O)C1CCCN(C(=O)Cc2cccs2)C1 (stereo not shown)
8. CCOC(=O)C1CC(C)CN(C(=O)Cc2cccs2)C1 (stereo not shown)

Out:
1: 1; 2: 10; 3: 10; 4: 10; 5: 1; 6: 10; 7: 1; 8: 10

---

For each entry below, report its MTC (Maximum Tolerable Concentration prior to causing cytotoxicity) value.
System: chicken leukocytes
Experiment: cells
Format: cell-based
Settings: Hubbard/Peterson broiler, chicken, 72 h
One number for each entry, in µg/mL.

// below: answered compounds
CCNC(=O)C1CCCN(C(=O)c2ccccc2)C1 (stereo not shown): 10
CCOC(=O)C1CCCN(C(=O)CCc2cccs2)C1 (stereo not shown): 1
CCCC(=O)C1CCCN(C(=O)c2ccccc2)C1 (stereo not shown): 10
CCOC(=O)C1CN(C(=O)Cc2cccs2)CCC1C (stereo not shown): 10
CCOC(=O)C1CN(C(=O)c2ccccc2)CCC1=O (stereo not shown): 1

Here are 5 compounds. What values of MTC (Maximum Tolerable Concentration prior to causing cytotoxicity) were reported for them?
1. O=C(O)[C@H]1CCCN(C(=O)c2ccccc2)C1
2. CCCCCCCCNC(=O)C1CCCN(C(=O)c2ccccc2)C1 (stereo not shown)
3. CCOC(=O)C1CCCN(C(=O)c2ccccc2)C1 (stereo not shown) [Example 1, Ethyl 1-Benzoyl-3-piperidinecarboxylate]
4. COC(=O)C1CN(C(=O)OCc2ccccc2)CCC1=O (stereo not shown)
5. CCCOC(=O)[C@H]1CCCN(C(=O)c2ccccc2)C1

Out:
[10, 0.1, 10, 1, 10]

---

For each entry below, report its MTC (Maximum Tolerable Concentration prior to causing cytotoxicity) value.
System: chicken leukocytes
Assay: cells
Type: cell-based
Details: Hubbard/Peterson broiler, chicken, 72 h
One number for each entry, in µg/mL.

// below: answered compounds
O=C(O)[C@H]1CCCN(C(=O)Cc2cccs2)C1: 1000
CCOC(=O)C1CN(C(=O)NC)CCC1=O (stereo not shown): 1
CN(C)CCNC(=O)C1CCCN(C(=O)Cc2cccs2)C1 (stereo not shown): 1
CCOC(=O)C1CN(C(=O)OCc2ccccc2)CCC1=O (stereo not shown): 0.1
CCOC(=O)C1CN(C(=O)c2ccc(F)cc2)CCC1=O (stereo not shown): 0.1
O=C[C@H]1CCCN(C(=O)Cc2cccs2)C1: 10
CCNC(=O)C1CCCN(C(=O)Cc2cccs2)C1 (stereo not shown): 1
CCOC(=O)C1CCCN(C(=O)c2ccc(F)cc2)C1 (stereo not shown): 10

Here are 2 compounds. What values of MTC (Maximum Tolerable Concentration prior to causing cytotoxicity) were reported for them?
1. CCCCOC(=O)C1CCCN(C(=O)c2ccccc2)C1 (stereo not shown)
2. CCOC(=O)[C@H]1CCCN(C(=O)Cc2cccs2)C1

Out:
1. 1
2. 10
